Each record here notes measured TGI.
Test system: SF-539 CNS
ASSAY_METHOD_TEXT: NCI tumour cell line growth inhibition, 48 h
*1 amine or outer side, *2 acyl side, *3 side chain or, on linkers, in order; H or OH if unused. Where a SMILES comes first, the peptide text is derived from it. The star is where a group is joined. γGlu = O=C(O)[CH](CCC(=O)[*:2])N[*:1]; NHOH = ON*
RESULT_TYPE: TGI

>>> result("N#CC1CCCCC1NC1(C#N)CCCCC1 (centres undefined)")
"> 100 µM"
>>> result("O=C(/C=C/c1ccccc1)OCC1=C[C@@H](O)[C@@H]2C=CO[C@@H](OC3OC(CO)C(O)C(O)C3O)[C@H]12 (some centres undefined)")
"> 100 µM"
>>> result("CN1CCc2cc3c4cc2C1Cc1ccc(cc1)Oc1cc(ccc1O)CC1c2c(cc(O)c(c2O4)O3)CCN1C (centres undefined)")
"3.21 µM"
>>> result("O=C(NCCCNCCCCNCCCNC(=O)c1cc(-c2ccccc2)nc2ccccc12)c1cc(-c2ccccc2)nc2ccccc12")
"3.62 µM"
>>> result("C#Cc1ccc(-n2c(/C=C/c3ccc4ccccc4c3)nc3ncccc3c2=O)cc1")
"> 100 µM"
>>> result("CC1CC(Br)C(=O)O1 (centres undefined)")
"> 100 µM"
>>> result("Cc1ccc(N=NC(C2=NC(=O)CS2)c2nc3ccccc3[nH]2)cc1 (centres undefined)")
"> 100 µM"
>>> result("O=C(NC1C(=O)NNC1c1ccccc1Cl)c1ccccc1 (centres undefined)")
"> 100 µM"
>>> result("NC(=O)c1ncn(Cc2ccccc2)c1CNC(N)=S")
"> 100 µM"
>>> result("Cc1c(O)c(Br)c(C)c(O)c1Br (tested in a mixture with another compound)")
"10 µM"
>>> result("COc1cc([N+](=O)[O-])ccc1NC(=O)c1cccc([N+](=O)[O-])c1O")
"75.2 µM"
>>> result("COC(=O)[C@@H]1COC(C(C)(C)C)N1C(=O)C(c1ccccc1)c1ccccc1 (some centres undefined)")
"> 100 µM"
>>> result("COc1cc2c(cc1O)C1CC(CC3CCCCN31)OC(=O)/C=C\\c1ccc(O)c-2c1 (centres undefined)")
"34.6 µM"
>>> result("COc1cc2c(cc1OC)C(=O)/C(=C/c1cc(Cl)cc(Cl)c1)C2")
"9.94 µM"
>>> result("COC(=O)c1ccc(/C=C2\\Oc3cc(O)ccc3C2=O)cc1")
"> 100 µM"
>>> result("O=C1N(CN2CCOCC2)CN(CN2CCOCC2)C(=O)N1Cc1ccc(CN2C(=O)N(CN3CCOCC3)CN(CN3CCOCC3)C2=O)cc1")
"> 100 µM"
>>> result("C=C(CO)[C@H]1Oc2ccc(C(C)=O)cc2[C@@H]1O")
"> 100 µM"
>>> result("Cc1c/c(=N/NC(=O)c2ccncc2)n2nc(N)sc2n1")
"> 100 µM"
>>> result("COc1ccc(-c2nc3sccn3c2-c2ccnc(NCCCNS(=O)(=O)c3ccc(F)cc3)n2)cc1")
"8.67 µM"
>>> result("CCOP(=O)(OCC)C(Nc1cccc(F)c1)c1ccc(N(C)C)cc1 (centres undefined)")
"> 100 µM"
>>> result("COC1=CC(=O)C2C(C1=O)C(c1ccc(Cl)cc1)[C@@H]2C (some centres undefined)")
"51.2 µM"
>>> result("CC(C)[C@H](C(=O)O[C@@H]1/C=C/C(=O)O[C@@H](C)CCC/C=C/[C@@H]2C[C@H](O)C[C@H]21)N(C)C")
"58.9 µM"
>>> result("COC(=O)C1=C(\\O)C[C@@]2(C)CC[C@@H](C(=O)OC)C2C/C=C\\1C(=O)OC (some centres undefined)")
"38.8 µM"
>>> result("CC1C(=O)C(C)C(c2ccco2)N(N=O)C1c1ccco1 (centres undefined)")
"> 100 µM"
>>> result("CCCCc1ccc(Nc2nc(Cl)c3ncn(C4CC(Oc5ccc(C)cc5)C(COc5ccc(C)cc5)O4)c3n2)cc1 (centres undefined)")
"> 100 µM"
>>> result("C[N+]1(C)C[C@@H](O)C[C@@H]1C(=O)[O-]")
"> 100 µM"
>>> result("CNc1ncnc2c1cnn2CCCCO")
"> 100 µM"
>>> result("N#CC1C(=O)NC(=O)C1=O (centres undefined)")
"> 100 µM"
>>> result("CCOC(=O)C(NC(=O)c1ccccc1)(Nc1ccc(S(=O)(=O)Nc2cc(C)nc(C)n2)cc1)C(F)(F)F (centres undefined)")
"> 100 µM"
>>> result("COC(CC1(OC)OC(=O)C=C1N)OC (centres undefined)")
"> 100 µM"
>>> result("O=C1C(Br)=CC2(C=C1Br)CCNc1c(O)c3c4c(c12)=NCCC=4C=N3")
"0.557 µM"
>>> result("O=C(CSc1ncc(-c2ccccc2)n1-c1ccccc1)Nc1ccc(-c2nc3ccccc3s2)cc1")
"> 100 µM"
>>> result("COC(=O)c1ccccc1C1=C([N+](=O)[O-])C(c2cccc(Br)c2)C(C#N)=C(N)O1 (centres undefined)")
"> 100 µM"
>>> result("CNN1C(=O)c2c(C)c(C)c(C#N)c(N)c2C1=O")
"> 100 µM"
>>> result("Cc1c(N=Nc2ccc(Cl)cc2)c(C)n(C2OC(CO)C(O)C(O)C2O)c(=S)c1C#N (centres undefined)")
"38 µM"
>>> result("COc1ccc(C(=C2C(=O)N(c3ccccc3)C(=O)C2=C(C)C)c2ccc(OC)cc2)cc1")
"> 24.2 µM"
>>> result("CCOC(=O)CNC(=O)C(CCC(=O)NO)NC(=O)CCC(N)C(=O)O (centres undefined) (γGlu-Glu(NHOH)-Gly-OEt; configuration not given here)")
"> 100 µM"
>>> result("N[C@@H](CSSC[C@H](N)C(=O)N1CCn2cc(-c3ccccc3)nc2[C@@H]1CC1CCCCC1)C(=O)N1CCn2cc(-c3ccccc3)nc2[C@@H]1CC1CCCCC1")
"3.55 µM"
>>> result("OCc1ccc(N(Cc2ccc(F)cc2)CC2CCC2)cc1Cl")
"30.4 µM"

Attribution: PubChem BioAssay (NCI)
